Origin of values: patent US4818761A

The entries below are paired with their reported CI CB4 (C)/(A).
# Tested on: coxsackievirus type B4 (CB4)
# test: Inhibition of CB4 plaque formation in LLC-MK2 cells
# Format: cell-based
# conditionDetails: CI = CD50 (LLC-MK2)/IC50 (plaque)

sampleSmiles	CI CB4 (C)/(A)
Clc1ccc2nc(CNc3ccncc3)n(-c3ccccc3)c2c1	> 250
Cc1ccc(-n2c(CNc3ccncc3)nc3ccccc32)cc1	2,946
CCCn1c(CNc2ccncc2)nc2ccccc21	> 4,255
Cc1ccc(-n2c(CNc3ccncc3)nc3ccccc32)cc1C	> 6
Fc1ccc(-n2c(CNc3ccncc3)nc3ccccc32)cc1	> 2,410
Cn1c(CNc2ccncc2)nc2ccc(Cl)cc21	> 1
Brc1ccc2[nH]c(CNc3ccncc3)nc2c1	17
CCc1cc2nc(CNc3ccncc3)[nH]c2cc1Cl	7
Brc1ccc(-n2c(CNc3ccncc3)nc3ccccc32)cc1	> 100
CCCCCn1c(CNc2ccncc2)nc2ccccc21	> 2,828
Clc1ccc(-n2c(CNc3ccncc3)nc3ccccc32)cc1	> 1,176
Fc1cc2nc(CNc3ccncc3)[nH]c2cc1Cl	> 3
Cc1cc2nc(CNc3ccncc3)[nH]c2cc1Br	13
CCCCn1c(CNc2ccncc2)nc2cc(C)ccc21	1,010
c1ccc(-n2c(CNc3ccncc3)nc3ccccc32)cc1	943
CCCCCCn1c(CNc2ccncc2)nc2ccccc21	544
CC(=O)OCCOCn1c(CNc2ccncc2)nc2ccccc21	8
CCn1c(CNc2ccncc2)nc2ccccc21	1,768
CCc1ccc2nc(CNc3ccncc3)n(-c3ccccc3)c2c1	11
Cl.Fc1cccc(-n2c(CNc3ccncc3)nc3ccccc32)c1	> 278
Ic1ccc2[nH]c(CNc3ccncc3)nc2c1	> 3
Cc1ccc(-n2c(CNc3ccncc3)nc3ccccc32)cc1F	> 31
CC(C)c1ccc2[nH]c(CNc3ccncc3)nc2c1	> 15
